Test system: IGROV1 ovarian
assay_procedure: NCI tumour cell line growth inhibition, 48 h
property: GI50

May I ask what GI50 has been recorded for `Cn1cc(C2=C(c3c[nH]c4ccccc34)C(=O)NC2=O)c2ccccc21` ?
975 nM

May I ask what GI50 has been recorded for `CN=C1C=CC(=C(c2ccc(N(C)C)cc2)c2ccc(N(C)C)cc2)C=C1` ?
420 nM

May I ask what GI50 has been recorded for CCCCCC(O)C(O)CCC[C@H](O)[C@H]1CC[C@H]([C@H]2CC[C@H]([C@H](O)CCCCCCCCCCCCC3=C[C@H](C)OC3=O)O2)O1 (some centres undefined) ?
7460 nM

May I ask what GI50 has been recorded for `COC(=O)c1c(-c2cccs2)oc(-c2cccs2)c1C(=O)OC` ?
36200 nM

May I ask what GI50 has been recorded for N#CC1=C(N)Oc2c(ccc3ccccc23)C1c1cc(=O)oc2ccc(Cl)cc12 (centres undefined) ?
873 nM

May I ask what GI50 has been recorded for `O=C(Nc1ccccc1I(=O)=O)C1CCCCC1` ?
> 100000 nM

May I ask what GI50 has been recorded for `Cc1cc(-c2c(F)cc3c4nn([C@H]5CC[C@@H](N(C)C)CC5)c(=O)c-4cn(C4CC4)c3c2F)cc(C)n1` ?
278 nM

May I ask what GI50 has been recorded for COc1cc(C2C3=C(COC3=O)N(CCO)c3cc4c(cc32)OCCO4)cc(OC)c1OC (centres undefined) ?
165 nM

May I ask what GI50 has been recorded for `O=C(/C=C/C=C/c1ccccc1)c1ccco1` ?
18300 nM

* * *

Test system: SN12C renal
assay_procedure: NCI tumour cell line growth inhibition, 48 h
property: TGI

May I ask what TGI has been recorded for CCOC(=O)CCC(C(=O)OCC)n1nnc2cc(Nc3c(C)[n+]([O-])c4cc(F)c(OCC)cc4[n+]3[O-])ccc21 (stereo not given) ?
> 100 µM

May I ask what TGI has been recorded for `O=c1c2nc(-c3ccccc3)oc2n(-c2ccccc2)c(=O)n1-c1ccccc1` ?
> 46.4 µM

May I ask what TGI has been recorded for [N-]=[N+]=NCC(O)Cn1cnc2c(NC(=O)c3ccccc3)ncnc21 (stereo not given) ?
> 100 µM

May I ask what TGI has been recorded for `Cc1c(C#N)cccc1[C@@H](C)Nc1nnc(C)c2cnc(N3CCOCC3)cc12` ?
> 100 µM

May I ask what TGI has been recorded for `C#CC1=CC(=O)C(OC)=CC1=O` ?
31.7 µM

May I ask what TGI has been recorded for CCCCCCCC1(c2ccc(N)cc2)CCC(=O)NC1=O (stereo not given) ?
> 100 µM

May I ask what TGI has been recorded for `Cc1cc(-c2nc3cccc(O)c3s2)ccc1N` ?
> 100 µM

May I ask what TGI has been recorded for `CN=C1C=CC(=C(c2ccc(N(C)C)cc2)c2ccc(N(C)C)cc2)C=C1` ?
3.04 µM

May I ask what TGI has been recorded for `COc1ccc(C(=O)c2cc(C)c(OC)c(C)c2)c(OC)c1NC(C)=O` ?
> 100 µM

May I ask what TGI has been recorded for `Cc1cc(N(CCOS(C)(=O)=O)CCOS(C)(=O)=O)ccc1C(=O)O` ?
> 100 µM

* * *

Tested on: PC-3 prostate
assay_procedure: NCI tumour cell line growth inhibition, 48 h
Hi there, I'd appreciate the recorded GI50 for every entry that follows.

Find the measured GI50: item `O=C(NCC(F)(F)F)Nc1cccc(-c2cnc3cc(-c4ccc(F)cc4)ccn23)c1` , target or system PC-3 prostate.
2220 nM

Find the measured GI50: item `C#Cc1cccc(Nc2nc(Cl)nc3cc(NC(=O)CCl)ccc23)c1` , target or system PC-3 prostate.
1050 nM

Find the measured GI50: item O=C1CSC(c2ccccc2Cl)N1c1nnc(Cn2cnnc2)o1 (stereo not drawn) , target or system PC-3 prostate.
11600 nM

* * *

System: SN12C renal
assay_procedure: NCI tumour cell line growth inhibition, 48 h
property: TGI

May I ask what TGI has been recorded for `O=C(CN(/C=C/C(=O)C(F)(F)F)c1ccc(Cl)cc1)c1ccc(Cl)c(Cl)c1` ?
5.43 µM

May I ask what TGI has been recorded for `COc1ccccc1NC(=O)C1=C(C)NC(C)=C(C(=O)Nc2ccccc2OC)C1/C=C/c1ccccc1` ?
> 100 µM

May I ask what TGI has been recorded for `Cn1cc(C2=C(c3c[nH]c4ccccc34)C(=O)NC2=O)c2ccccc21` ?
> 25 µM

May I ask what TGI has been recorded for `Cc1ccc(NC(=O)C(=O)CC(=O)c2c(C)n([O-])c3ccccc3[n+]2=O)cc1C` ?
> 100 µM

May I ask what TGI has been recorded for `CC(=O)N1CCN(CCNC(=O)n2cc(-c3ccncc3)c(-c3cc(O)cc(Cl)c3)n2)CC1` ?
46.2 µM

May I ask what TGI has been recorded for `COc1cc(Oc2nc3cc(F)c(F)cc3nc2-c2ccccc2)cc(OC)c1OC` ?
> 100 µM

May I ask what TGI has been recorded for `CC(C)c1cc(C(C)C)c(S(=O)(=O)N=[N+]=[N-])c(C(C)C)c1` ?
> 100 µM

May I ask what TGI has been recorded for O=C1CSC(c2ccccc2Cl)N1c1nnc(Cn2cnnc2)o1 (centres undefined) ?
76.3 µM

May I ask what TGI has been recorded for `Nc1nc2c(C(=O)NCc3cccs3)nnn2c2cccc(Cl)c12` ?
> 100 µM

* * *

Hi there, I'd appreciate the recorded TGI for every entry that follows.
Test system: SR leukemia
assay_procedure: NCI tumour cell line growth inhibition, 48 h

May I ask what TGI has been recorded for NC(N)=NC1C(O)C(O)C(O)C(N=C(N)N)C1O (stereo not given) ?
> 100 µM

May I ask what TGI has been recorded for O=[N+]([O-])c1ccc(Cl)c(CNc2ncnc3c2ncn3C2CCCCO2)c1 (stereo not given) ?
64.4 µM

May I ask what TGI has been recorded for `COc1ccccc1NC(=O)C1=C(C)NC(C)=C(C(=O)Nc2ccccc2OC)C1/C=C/c1ccccc1` ?
> 100 µM

May I ask what TGI has been recorded for `CCN(CC)C(=O)CCN1CC1` ?
> 10 µM

May I ask what TGI has been recorded for CCOC1=C(c2ccccc2)N2CCCCC2O1 (stereo not given) ?
> 31.6 µM

May I ask what TGI has been recorded for `CC1=CCC[C@H]2[C@](C)(CC3=CC(=O)C(SCC(C)C)=CC3=O)[C@@H](C)CC[C@]12C` ?
59 µM

May I ask what TGI has been recorded for `CC1(C)C=C(/C=N/Nc2ccccc2)C(C#N)=C(O)C1(C#N)C#N` ?
> 100 µM

May I ask what TGI has been recorded for `C#C[C@@]1(O)[C@@H](CO)O[C@@H](n2cc(I)c3c(N)ncnc32)[C@@H]1O` ?
> 28.5 µM

May I ask what TGI has been recorded for CC1OC(=O)C(O)=C1O (stereo not given) ?
> 100 µM

May I ask what TGI has been recorded for `COC(=O)c1c(-c2cccs2)oc(-c2cccs2)c1C(=O)OC` ?
> 100 µM

* * *

Test system: SK-OV-3 ovarian
assay_procedure: NCI tumour cell line growth inhibition, 48 h
property: TGI

May I ask what TGI has been recorded for `C#C[C@@]1(O)[C@@H](CO)O[C@@H](n2cc(I)c3c(N)ncnc32)[C@@H]1O` ?
0.729 µM

May I ask what TGI has been recorded for `CC1(C)O[C@@H](C[C@]2(C#N)C[C@H](CCl)OC(C)(C)O2)C[C@@H](C#N)O1` ?
> 100 µM

May I ask what TGI has been recorded for `COc1cc(Oc2nc3cc(F)c(F)cc3nc2-c2ccccc2)cc(OC)c1OC` ?
> 100 µM

May I ask what TGI has been recorded for `COc1ccc(C(=O)c2cc(C)c(OC)c(C)c2)c(OC)c1NC(C)=O` ?
> 100 µM

May I ask what TGI has been recorded for C=C1C(O)C2CC(C)(CO)C(=O)C2=C(CC(C)C)C12CC2 (stereo not given) ?
> 100 µM

May I ask what TGI has been recorded for `CS(=O)(=O)c1ccc(Nc2nc(N[C@H]3CCCC[C@H]3N)nc3cc[nH]c(=O)c23)cc1` ?
> 100 µM

May I ask what TGI has been recorded for `Cc1nc(-c2cc3ccccc3oc2=O)cs1` ?
> 100 µM

May I ask what TGI has been recorded for `NC(=S)NC/C=C/Cl` ?
> 100 µM

May I ask what TGI has been recorded for `CSc1nc2nc3c(nc2c(=O)n1C)C(=O)c1ccccc1C3=O` ?
2.04 µM

May I ask what TGI has been recorded for O=C1C2C=CC(n3[nH]c(=O)n(Cc4ccccc4)c3=O)CC2C(=O)N1c1ccc(Br)cc1 (stereo not given) ?
> 100 µM

* * *

Hi there, I'd appreciate the recorded TGI for every entry that follows.
System: MOLT-4 leukemia
assay_procedure: NCI tumour cell line growth inhibition, 48 h

May I ask what TGI has been recorded for CC(C)(C)C1=C(Br)C(O)(C(C)(C)C)OP1(=O)c1ccccc1 (configuration not stated) ?
> 100 µM

May I ask what TGI has been recorded for `CCOC(=O)c1cc(-c2ccc(-c3cc(C(=O)OCC)c(C#N)c(N)c3C#N)cc2)c(C#N)c(N)c1C#N` ?
> 100 µM

May I ask what TGI has been recorded for `c1ccc(OCCC[P+](c2ccccc2)(c2ccccc2)c2ccccc2)cc1` ?
13.7 µM

May I ask what TGI has been recorded for `O=C1/C(=C/c2cccc3ccccc23)CCc2ccc([N+](=O)[O-])cc21` ?
> 100 µM

May I ask what TGI has been recorded for `OC(NN=C1CCCC1)(C(F)(F)Cl)C(F)(F)Cl` ?
> 10 µM

May I ask what TGI has been recorded for `COc1cc(N(CCC#N)CCC#N)ccc1/C=N\NC(=O)c1ccc(C)cc1` ?
> 100 µM

May I ask what TGI has been recorded for `CCNc1cc2c3c(c1)CCN3CCC2` ?
> 10 µM
